B1: Chromodomain-helicase-DNA-binding protein 7, residues 2564 to 2605; numbered along this chain, Q9P2D1 (parent)
chain: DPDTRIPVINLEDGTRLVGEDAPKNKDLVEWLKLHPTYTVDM

Variants of: B1
Test: abundance fitness (aPCA) (normalised: wild type 0, dead -1); higher = more abundant; growth selection in yeast, the domain comes from the species named
Details: Homo sapiens
Label scheme for abundance fitness: lower than -0.09 is criterion not met, -0.09 and above is criterion met.

Illustrative cases are given below, each with its answer.
Identify whether the reported abundance fitness of the following variant is -0.09 or greater: DPDTRIPVINLEDGTHLVGEDAPKNKDLVEWLKLHPTYTVDM [R16H] criterion met

Identify whether the reported abundance fitness of the following variant is -0.09 or greater: DPDTRIPVINLEDGTRLVGEDAPKNKDLVEWLKLHPTYTRDM [V40R] criterion met

Identify whether the reported abundance fitness of the following variant is -0.09 or greater: DPDTRIPVINLEDGTRLVYEDAPKNKDLVEWLKLHPTYTVDM [G19Y] criterion not met

Identify whether the reported abundance fitness of the following variant is -0.09 or greater: DPDTRIPVINLEDGTRLVGEDAPKNKDLVERLKLHPTYTVDM [W31R] criterion not met

Identify whether the reported abundance fitness of the following variant is -0.09 or greater: DPATRIPVINLEDGTRLVGEDAPKNKDLVEWLKLHPTYTVDM [D3A] criterion not met

---
Identify whether the reported abundance fitness of the following variant is -0.09 or greater: DPDTRIPVINLEDGTRLVGETAPKNKDLVEWLKLHPTYTVDM [D21T] criterion not met

Identify whether the reported abundance fitness of the following variant is -0.09 or greater: DPDTRIPVINLEDGTRLVGEDAPKNKDLVEWLKAHPTYTVDM [L34A] criterion met

Identify whether the reported abundance fitness of the following variant is -0.09 or greater: DPDTRIPVINLEDGPRLVGEDAPKNKDLVEWLKLHPTYTVDM [T15P] criterion not met

Identify whether the reported abundance fitness of the following variant is -0.09 or greater: DPDTRIPVINLEDGTRLVGEDAPKNKDLVEYLKLHPTYTVDM [W31Y] criterion not met

Identify whether the reported abundance fitness of the following variant is -0.09 or greater: DPDTRIPVINLEDGTRLVGEDAPKNKDLVEWLKLHPAYTVDM [T37A] criterion not met

Identify whether the reported abundance fitness of the following variant is -0.09 or greater: DPDTRIPVINLEDGTRMVGEDAPKNKDLVEWLKLHPTYTVDM [L17M] criterion met

Identify whether the reported abundance fitness of the following variant is -0.09 or greater: DPDTRIPVINLEDGTRLVGEDAPKNKDLVEWLKLHPTYGVDM [T39G] criterion not met

Identify whether the reported abundance fitness of the following variant is -0.09 or greater: DPDTRIPVINLEDGTRLVGEDAPKNKCLVEWLKLHPTYTVDM [D27C] criterion not met

Identify whether the reported abundance fitness of the following variant is -0.09 or greater: DPDTRIPVINHEDGTRLVGEDAPKNKDLVEWLKLHPTYTVDM [L11H] criterion met

Identify whether the reported abundance fitness of the following variant is -0.09 or greater: DPDTRIPVINLEDGTRLVGEDAPKNKDLKEWLKLHPTYTVDM [V29K] criterion met

Identify whether the reported abundance fitness of the following variant is -0.09 or greater: DPDTRIPVINLEDGTRLVGEDAPKNKDLVEWLKLHPTYTSDM [V40S] criterion not met

Identify whether the reported abundance fitness of the following variant is -0.09 or greater: DPDTRIPVINLEDGTRLVGEDAPKNKDLVEWLKLHPTYTVDF [M42F] criterion not met

Identify whether the reported abundance fitness of the following variant is -0.09 or greater: DPDTRIPVINLEDGTRLVGELAPKNKDLVEWLKLHPTYTVDM [D21L] criterion not met

Identify whether the reported abundance fitness of the following variant is -0.09 or greater: DPDTLIPVINLEDGTRLVGEDAPKNKDLVEWLKLHPTYTVDM [R5L] criterion not met

Identify whether the reported abundance fitness of the following variant is -0.09 or greater: DPDTRIPVINLEDGTRLVGEYAPKNKDLVEWLKLHPTYTVDM [D21Y] criterion not met

Identify whether the reported abundance fitness of the following variant is -0.09 or greater: DPDTRITVINLEDGTRLVGEDAPKNKDLVEWLKLHPTYTVDM [P7T] criterion met

Identify whether the reported abundance fitness of the following variant is -0.09 or greater: DPDTRIPVINLEDGTRLVEEDAPKNKDLVEWLKLHPTYTVDM [G19E] criterion not met
